Here the recorded Population Hoechst High Intensity Objects (%) is given for each entry.
Test system: Fibroblast
Test: Multiplex assay against human fibroblast
Assay type: toxicity, cell-based
Details: 48 h, 1 µM, compound concentration 1 uM, replicate 1
Answer format: value, then unit.

Consider the worked cases shown below.
compound="C=CCN1C[C@H](C(=O)N(CCCN(C)C)C(=O)NCC)C[C@@H]2c3cccc4[nH]cc(c34)C[C@H]21 [CABERGOLINE]" value_measured=5%
compound="COc1c(Nc2ccc(S(C)(=O)=O)nc2C)ncnc1OC1CCN(C(=O)OC(C)C)CC1 [ADP-597]" value_measured=2%
compound="Nc1nc(CC(=O)Nc2ccc(CCNC[C@H](O)c3ccccc3)cc2)cs1 [MIRABEGRON]" value_measured=7%
compound=S=C(NCCCc1c[nH]cn1)NCCCN(Cc1ccc(Cl)c(Cl)c1)c1ccc(Br)cn1 value_measured=3%

For reference, reported Population Hoechst High Intensity Objects (%) for `Cc1sc2c(c1C)C(c1ccc(Cl)cc1)=N[C@H](CC(=O)OC(C)(C)C)c1nnc(C)n1-2` stands at 5%

Value of Population Hoechst High Intensity Objects (%) reported for the compound `COc1cc(C(=O)N2CC[C@@H](O)[C@@H](N)C2)cc2nc(-c3cc4ccccc4n3CC3CC3)n(C)c12.Cl` is 6%

Note to self: Population Hoechst High Intensity Objects (%) recorded for O=C(NCCNCC(O)COc1ccc(O)cc1)N1CCOCC1.O=C(NCCNCC(O)COc1ccc(O)cc1)N1CCOCC1.O=C(O)/C=C/C(=O)O (centres undefined) [XAMOTEROL FUMARATE] was 1%

The compound identified as `CN1CCN(c2ccc(Nc3c4ccccc4nc4ccccc34)cc2)CC1.Cl.Cl.O` registered its Population Hoechst High Intensity Objects (%) at 1%

`N[C@](CC1c2ccccc2Oc2ccccc21)(C(=O)O)[C@H]1C[C@@H]1C(=O)O` yielded Population Hoechst High Intensity Objects (%) of 2%

###

Tested on: HEK-293T
Test: Multiplex assay against HEK293T
Format: toxicity, cell-based
Details: human, 24 h, 1 µM, compound concentration 1 uM, replicate 2
The label is Met for Population Hoechst High Intensity Objects (%) below 4% and Not met for Population Hoechst High Intensity Objects (%) equal to or exceeding 4%.

Please review the entries below; each comes with its answer.
compound="COc1cc2nc(N3CCN(C(=O)c4ccco4)CC3)nc(N)c2cc1OC.Cl [PRAZOSIN HYDROCHLORIDE]" system_under_test=HEK-293T group="Not met"
compound=N[C@](CC1c2ccccc2Oc2ccccc21)(C(=O)O)[C@H]1C[C@@H]1C(=O)O system_under_test=HEK-293T group="Not met"
compound=O=c1nc2[nH]c3ccccc3nc-2c(=O)[nH]1 system_under_test=HEK-293T group="Not met"
compound=CN1CCN(c2ccc(Nc3c4ccccc4nc4ccccc34)cc2)CC1.Cl.Cl.O system_under_test=HEK-293T group=Met
compound=COc1c(Nc2ccc(S(C)(=O)=O)nc2C)ncnc1OC1CCN(C(=O)OC(C)C)CC1 system_under_test=HEK-293T group=Met

I'd appreciate it if you could check whether `OCCCNc1cc(-c2ccnc(Nc3cccc(Cl)c3)n2)ccn1` has Population Hoechst High Intensity Objects (%) smaller than 4%.
Not met

Is the reported Population Hoechst High Intensity Objects (%) for `COc1cc(C(=O)N2CC[C@@H](O)[C@@H](N)C2)cc2nc(-c3cc4ccccc4n3CC3CC3)n(C)c12.Cl` strictly below 4%?
Not met
